# Tested on: NCI-H522 lung
# assay comment: NCI tumour cell line growth inhibition, 48 h
test readout: GI50

Completed entries (count: 4):
compound	test readout	reported measurement
c1ccc(-c2cn(-c3ccccc3)c(-c3ccccc3)n2)cc1	GI50	13.3 µM
CCC(C)CC(C)C(=O)c1c(O)ccn(O)c1=O (stereo not given)	GI50	2.46 µM
COc1ccc(/C=C/C(=O)c2ccc(Nc3nc(Nc4ccc(F)cc4)nc(Nc4ccc(Cl)cc4)n3)cc2)cc1	GI50	36.7 µM
COc1cc2c(cc1OCCCCn1c(-c3cccs3)nc3ccccc31)N=C[C@@H]1CCCN1C2=O	GI50	1.04 µM

Attention now shifts to the item below.
Item O=C(O)c1cn(C2CC2)c2cc(N3CCN(C(=O)Nc4nc(-c5ccc(Br)cc5)cs4)CC3)c(F)cc2c1=O has what recorded GI50?
2.41 µM
